- TARGET OR TEST SYSTEM: Trypsin (Homo sapiens, UniProt P07477+P07478+P35030)
- TEST METHOD NOTES: Binding affinity towards human trypsin
- Assay type: protein assay
MEASURED PROPERTY: Ki (nM)
I only need the number, in nM, no unit after it.

For the compound shown here, N=C(N)c1cccc(-c2ncccc2C(=O)Nc2ccc(-c3ccccc3S(N)(=O)=O)cc2)c1.O=C(O)C(F)(F)F , give the reported Ki. 260

How about this compound: Cc1nc(-c2cccc(C(=N)N)c2)c(C(=O)Nc2ccc(-c3ccccc3S(N)(=O)=O)cc2)o1.O=C(O)C(F)(F)F 190

How about this compound: N=C(N)c1cccc(-n2cccc2C(=O)Nc2ccc(-c3ccccc3S(N)(=O)=O)cc2)c1 56

How about this compound: N=C(N)c1cccc(-n2ccnc2C(=O)Nc2ccc(-c3ccccc3S(N)(=O)=O)cc2)c1.O=C(O)C(F)(F)F 26

How about this compound: N=C(N)c1cccc(-c2ccccc2C(=O)Nc2ccc(-c3ccccc3S(N)(=O)=O)cc2)c1.O=C(O)C(F)(F)F 780

How about this compound: N=C(N)c1cccc(-n2nccc2C(=O)Nc2ccc(-c3ccccc3S(N)(=O)=O)cc2)c1 15

How about this compound: N=C(N)c1cccc(-n2nncc2C(=O)Nc2ccc(-c3ccccc3S(N)(=O)=O)cc2)c1.O=C(O)C(F)(F)F 3.4

How about this compound: Cc1nc(C(=O)Nc2ccc(-c3ccccc3S(N)(=O)=O)cc2)c(-c2cccc(C(=N)N)c2)[nH]1.O=C(O)C(F)(F)F 1100

How about this compound: N=C(N)c1cccc(-c2ocnc2C(=O)Nc2ccc(-c3ccccc3S(N)(=O)=O)cc2)c1.O=C(O)C(F)(F)F 261

How about this compound: Cc1nc(-c2cccc(C(=N)N)c2)c(C(=O)Nc2ccc(-c3ccccc3S(N)(=O)=O)cc2)s1.O=C(O)C(F)(F)F 60

* * *

This document collects pKi values reported for Prothrombin (Homo sapiens, UniProt P00734).
# pKi: negative log10 of molar concentration; output just the value

For the molecule shown here, N=C(N)c1cccc(-n2cncc2C(=O)Nc2ccc(-c3ccccc3S(N)(=O)=O)cc2)c1.O=C(O)C(F)(F)F , give the reported pKi. 5.49

How about this molecule: N=C(N)c1cccc(-n2ccnc2C(=O)Nc2ccc(-c3ccccc3S(N)(=O)=O)cc2)c1.O=C(O)C(F)(F)F 6.10

How about this molecule: Cn1cc(C(=O)Nc2ccc(-c3ccccc3S(N)(=O)=O)cc2)c(-c2cccc(C(=N)N)c2)n1.O=C(O)C(F)(F)F 5.58

How about this molecule: N=C(N)c1cccc(-c2ocnc2C(=O)Nc2ccc(-c3ccccc3S(N)(=O)=O)cc2)c1.O=C(O)C(F)(F)F 5.48

* * *

- TARGET OR TEST SYSTEM: Coagulation factor X (Oryctolagus cuniculus)
- Sequence (O19045 41-180 limits assumed): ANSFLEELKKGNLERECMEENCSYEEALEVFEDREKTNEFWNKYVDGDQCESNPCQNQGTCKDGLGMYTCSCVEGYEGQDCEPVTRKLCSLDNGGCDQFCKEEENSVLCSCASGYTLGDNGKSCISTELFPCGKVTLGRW
- Sequence (O19045 233-490 limits assumed): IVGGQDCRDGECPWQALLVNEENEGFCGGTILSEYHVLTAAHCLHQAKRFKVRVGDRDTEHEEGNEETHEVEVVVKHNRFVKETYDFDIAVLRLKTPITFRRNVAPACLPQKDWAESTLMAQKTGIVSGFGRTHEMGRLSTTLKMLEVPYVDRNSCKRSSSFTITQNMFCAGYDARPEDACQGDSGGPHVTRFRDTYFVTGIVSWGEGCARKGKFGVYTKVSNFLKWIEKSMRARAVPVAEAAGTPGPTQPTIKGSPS
- TEST METHOD NOTES: Binding affinity towards Rabbit Coagulation factor X in a rabbit arterio-venous (A-V) shunt model
MEASURED PROPERTY: Ki (nM)
I only need the number, in nM, no unit after it.

For the compound shown here, Cc1nc(-c2cccc(C(=N)N)c2)c(C(=O)Nc2ccc(-c3ccccc3S(N)(=O)=O)cc2)s1.O=C(O)C(F)(F)F , give the reported Ki. 0.08

* * *

This document collects log10(Ki) values reported for Coagulation factor X (Homo sapiens, UniProt P00742).
Kindly note that the scale is log10 and the underlying Ki is in nM.

# get_value(readout= log10(Ki), system= Coagulation factor X (Homo sapiens, UniProt P00742)) for Cc1nc(C(=O)Nc2ccc(-c3ccccc3S(N)(=O)=O)cc2)c(-c2cccc(C(=N)N)c2)[nH]1.O=C(O)C(F)(F)F 0.78

How about this molecule: Cc1nc(-c2cccc(C(=N)N)c2)c(C(=O)Nc2ccc(-c3ccccc3S(N)(=O)=O)cc2)o1.O=C(O)C(F)(F)F -0.40

How about this molecule: Cc1cn(-c2cccc(C(=N)N)c2)c(C(=O)Nc2ccc(-c3ccccc3S(N)(=O)=O)cc2)n1.O=C(O)C(F)(F)F -0.52

How about this molecule: N=C(N)c1cccc(-c2ccccc2C(=O)Nc2ccc(-c3ccccc3S(N)(=O)=O)cc2)c1.O=C(O)C(F)(F)F 0.91

How about this molecule: Cc1nc(-c2cccc(C(=N)N)c2)c(C(=O)Nc2ccc(-c3ccccc3S(N)(=O)=O)cc2)s1.O=C(O)C(F)(F)F -1.22
